Reference for the values: patent US6506766B1

biological target: human glucocorticoid receptor-α [GRX] isoform (Homo sapiens, UniProt P04150); construct: host or cells: insect SF21 cells (baculovirus); test: Radioligand binding with human glucocorticoid receptor cytosol ([3H]-dexamethasone competition); settings: GRX cytosol expressed in insect SF21 cells, [3H]-Dex ~0.9 nM, 4° C. overnight; Ki by Cheng-Prusoff, KL ~[…]; read-out: Ki (nM) GR
Sequence (P04150 whole entry, canonical isoform): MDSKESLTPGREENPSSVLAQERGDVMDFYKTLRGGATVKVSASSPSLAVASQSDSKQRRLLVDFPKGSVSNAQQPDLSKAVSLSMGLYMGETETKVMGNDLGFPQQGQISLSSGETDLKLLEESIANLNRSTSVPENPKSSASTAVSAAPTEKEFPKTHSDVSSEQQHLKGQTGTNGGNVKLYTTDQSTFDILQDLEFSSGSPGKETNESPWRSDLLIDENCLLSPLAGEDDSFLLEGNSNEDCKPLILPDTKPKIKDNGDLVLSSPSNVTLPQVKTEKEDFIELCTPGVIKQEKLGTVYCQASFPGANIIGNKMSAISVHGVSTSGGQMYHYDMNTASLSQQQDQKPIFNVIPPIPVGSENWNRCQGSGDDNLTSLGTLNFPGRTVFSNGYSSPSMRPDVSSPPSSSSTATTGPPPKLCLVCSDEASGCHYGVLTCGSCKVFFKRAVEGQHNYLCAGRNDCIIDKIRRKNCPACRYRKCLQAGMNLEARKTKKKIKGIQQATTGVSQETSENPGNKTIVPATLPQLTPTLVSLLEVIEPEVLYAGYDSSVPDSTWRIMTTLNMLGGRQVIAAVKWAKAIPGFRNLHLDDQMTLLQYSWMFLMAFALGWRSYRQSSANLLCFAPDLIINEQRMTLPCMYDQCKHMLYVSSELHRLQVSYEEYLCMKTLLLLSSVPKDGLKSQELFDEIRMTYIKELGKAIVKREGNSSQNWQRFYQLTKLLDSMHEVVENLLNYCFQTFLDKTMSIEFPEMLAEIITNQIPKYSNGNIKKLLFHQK
OBSERVATION TYPE: Ki (nM)

1) CC1=C[C@@H]([C@@H]2Oc3ccc(O)c(Cl)c3-c3ccc4c(c32)C(C)=CC(C)(C)N4)CCC1 [Example 417]	3
2) COc1cccc2c1-c1ccc3c(c1C(c1cccc(SC)c1)O2)C(C)=CC(C)(C)N3 (stereo not shown) [Example 103]	5.2
3) COc1c(O)ccc2c1-c1ccc3c(c1[C@@H]([C@@H]1C=C(C)CCC1)O2)C(C)=CC(C)(C)N3 [Example 240]	52.2
4) CC1=CC(C)(C)Nc2ccc3c(c21)C(c1ccccc1)Oc1cccc(CO)c1-3 (stereo not shown) [Example 336]	9.5
5) CCOc1cccc2c1-c1ccc3c(c1C(c1ccccc1)O2)C(C)=CC(C)(C)N3 (stereo not shown) [Example 9]	60.5
6) COc1cccc2c1-c1ccc3c(c1C(c1ccc(C)c(F)c1)O2)C(C)=CC(C)(C)N3 (stereo not shown) [Example 51]	18
7) C=CCC1Oc2cccc(OC)c2-c2ccc3c(c21)C=C(C)C(C)(C)N3 (stereo not shown) [Example 364]	424
8) COC(=O)C1=CC(C2Oc3ccc(O)c(OC)c3-c3ccc4c(c32)C(C)=CC(C)(C)N4)CCC1 (single isomer, unassigned) [Example 415]	9.9
9) COc1cccc2c1-c1ccc3c(c1C(C1CCCCC1=O)O2)C(C)=CC(C)(C)N3 (single isomer, unassigned) [Example 142]	51
10) COc1cccc2c1-c1ccc3c(c1C(c1cccc(NCc4ccccc4)c1)O2)C(C)=CC(C)(C)N3 (stereo not shown) [Example 119]	6.9
11) CNC(=O)OC/C=C/CC1Oc2cccc(OC)c2-c2ccc3c(c21)C(C)=CC(C)(C)N3 (stereo not shown) [Example 197]	28
12) COc1c(O)ccc2c1-c1ccc3c(c1C(C(C)C)O2)C(C)=CC(C)(C)N3 (stereo not shown) [Example 267]	0.79
13) COc1cccc2c1-c1ccc3c(c1C(c1ccc(C)c(C)c1)O2)C(C)=CC(C)(C)N3 (stereo not shown) [Example 29]	7.7
14) COc1c(O)ccc2c1-c1ccc3c(c1C(c1cc(C(F)(F)F)cc(C(F)(F)F)c1)O2)C(C)=CC(C)(C)N3 (stereo not shown) [Example 257]	10
15) CC1=CC(C)(C)Nc2ccc3c(c21)C(c1ccccc1)Oc1cccc(OC(F)F)c1-3 (stereo not shown) [Example 345]	8.7
16) COc1cccc2c1-c1ccc3c(c1C(c1cc(C)cc(C(C)(C)O)c1)O2)C(C)=CC(C)(C)N3 (stereo not shown) [Example 111]	7.2
17) COc1cccc2c1-c1ccc3c(c1C(c1cccc(OS(=O)(=O)c4ccc(C)cc4)c1)O2)C(C)=CC(C)(C)N3 (stereo not shown) [Example 93]	148
18) COc1c(O)ccc2c1-c1ccc3c(c1C(c1cc(F)c(F)c(F)c1)O2)C(C)=CC(C)(C)N3 (stereo not shown) [Example 250]	2.4
19) CCCC1Oc2ccc(O)c(Cl)c2-c2ccc3c(c21)C(C)=CC(C)(C)N3 (stereo not shown) [Example 411]	0.68
20) CC1=CC(C)(C)Nc2ccc3c(c21)C(CC(C)C)Oc1ccc(O)c(Cl)c1-3 (stereo not shown) [Example 409]	2.7
21) COc1cccc2c1-c1ccc3c(c1C(c1ccc(OCc4ccccc4)cc1)O2)C(C)=CC(C)(C)N3 (stereo not shown) [Example 98]	9.8
22) C=CCC1Oc2ccc(OC(=O)CNC(N)=O)c(OC)c2-c2ccc3c(c21)C(C)=CC(C)(C)N3 (racemic) [Example 432]	1.4
23) COc1cccc2c1-c1ccc3c(c1C(=Cc1ccccn1)O2)C(C)=CC(C)(C)N3 [Example 128]	5.9
24) COc1c(Cl)ccc2c1-c1ccc3c(c1C(c1ccccc1)O2)C(C)=CC(C)(C)N3 (stereo not shown) [Example 229]	34.7
25) C=CCC1Oc2ccc(OC)c(OC)c2-c2ccc3c(c21)C(C)=CC(C)(C)N3 (stereo not shown) [Example 130]	11.9
26) COc1cccc2c1-c1ccc3c(c1C(CCOC(=O)N(C)C)O2)C(C)=CC(C)(C)N3 (stereo not shown) [Example 204]	74
27) COc1cccc2c1-c1ccc3c(c1C(c1cccc(C(=O)O)c1)O2)C(C)=CC(C)(C)N3 (stereo not shown) [Example 108]	638
28) COCOC/C=C/C1Oc2cccc(OC)c2-c2ccc3c(c21)C(C)=CC(C)(C)N3 (stereo not shown) [Example 183]	38
29) COc1cccc2c1-c1ccc3c(c1C(CC=O)O2)C(C)=CC(C)(C)N3 (stereo not shown) [Example 186]	90
30) COc1cccc2c1-c1ccc3c(c1C(=Cc1ccc(Cl)cc1)O2)C(C)=CC(C)(C)N3 [Example 121]	11.3
31) COc1cccc2c1-c1ccc3c(c1C(c1cccc(OCc4ccccc4)c1)O2)C(C)=CC(C)(C)N3 (stereo not shown) [Example 87]	4.7
